Recorded AC26, one value per entry.
test system: D54 ERlucT glycosylation luciferase reporter, luminescence, 24 h; experiment: N-linked glycosylation inhibitors, luciferase reporter, dose response, D54 ERlucT cells, luminescence, cherry-picks (AID 624491);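 note: signal gain reflects blocked N-linked glycosylation of a luciferase reporter; actives raise luciferase signal so AC26 marks activators of the reporter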

[in] Tell me reported AC26 for CS(=O)(=O)Nc1cccc(NC(=O)C2Cc3c(-c4ccccc4)ccnc3O2)c1 (configuration not stated) , tested with D54 ERlucT glycosylation luciferase reporter, luminescence, 24 h.
[out] 2360 nM

[in] Quick check: AC26 on D54 ERlucT glycosylation luciferase reporter, luminescence, 24 h, item CCC(=NCCc1c(C)[nH]c2ccc(OC(F)(F)F)cc12)C1=C(O)CC(c2ccccc2)CC1=O (configuration not stated) ?
[out] 817 nM

[in] Which AC26 is reported with D54 ERlucT glycosylation luciferase reporter, luminescence, 24 h for this entry: CC(=O)Nc1ccc2cc3ccc(NC(C)=O)cc3nc2c1 ?
[out] 5210 nM

[in] Give AC26 (D54 ERlucT glycosylation luciferase reporter, luminescence, 24 h) of the following molecule: CC1CCCCN1C(=O)NC12CC3CC(CC(C3)C1)C2 (configuration not stated)
[out] 4170 nM

[in] Please state recorded AC26 (tested on D54 ERlucT glycosylation luciferase reporter, luminescence, 24 h) of CN(C)CCCN1C(=O)c2cccc3cccc(c23)C1=O
[out] 3880 nM

[in] # value lookup — system D54 ERlucT glycosylation luciferase reporter, luminescence, 24 h, readout AC26, item COC(=O)c1cc(=O)n(-c2ccccc2)c(=Nc2ccccc2)s1
[out] 10800 nM

[in] Query AC26 on D54 ERlucT glycosylation luciferase reporter, luminescence, 24 h for Cc1ccsc1CNc1ncnc2ccc(-c3c(C)noc3C)cc12
[out] 102 nM

----------
Some compounds, each annotated with its measured AC26.
test system: D54 ERlucT glycosylation luciferase reporter, luminescence, 24 h; assay: N-linked glycosylation inhibitors, luciferase reporter, dose response, D54 ERlucT cells, luminescence, cherry-picks (AID 624491)

N=c1c(C(=O)NCc2ccco2)cc2c(=O)n3ccccc3nc2n1CCc1ccccc1    707 nM
COc1cc(C2c3cc4c(cc3OC(Nc3ccc(C(=O)O)cc3)C2C)OCO4)cc(OC)c1OC (stereo unspecified)    10700 nM

[in] Look at this compound and give its reported AC26. O=C(NO)c1ccc(OC(F)F)cc1
[out] 3430 nM

[in] Endpoint output: AC26 of COC(=O)c1sc(N)c(C(=O)OC)c1COC(=O)c1c(C)noc1C . Value?
[out] 2130 nM

[in] For the compound COc1cc(C(=O)N/N=C/c2ccccn2)cc(OC)c1OC , what AC26 is on record?
[out] 1160 nM

[in] Return reported AC26; argument: COc1ccc2c(c1)C(=O)N1[C@H]3c4cc(C)ccc4OC[C@@H]3[C@H](c3ccccc3)[C@]1(C)C(=O)N2
[out] 358 nM

[in] Give its AC26 value. Item: O=C(Nc1cc(Cl)ccc1N1CCOCC1)c1ccc(N2CCCC2=O)cc1
[out] 108 nM

[in] Could you share which AC26 value was measured for COc1ccc(CC(=O)N/N=C/c2c(C)n(C)c3ccccc23)cc1OC ?
[out] 4460 nM

[in] Quick one: AC26 for O=C(/C=C/Sc1ccccc1)c1ccccc1 ?
[out] 2150 nM

[in] Find the recorded AC26 belonging to CC(C)n1cc(NC(=O)c2cc(-c3ccccc3)on2)cn1 and report it.
[out] 1230 nM

----------
# AC26 annotations
system: D54 ERlucT glycosylation luciferase reporter, luminescence, 24 h; test: N-linked glycosylation inhibitors, luciferase reporter, dose response, D54 ERlucT cells, luminescence, cherry-picks (AID 624491)

[in] What is its AC26 for D54 ERlucT glycosylation luciferase reporter, luminescence, 24 h? Entry: O=C(/C=C/c1ccc(-c2ccccc2[N+](=O)[O-])o1)c1ccc(Br)cc1
[out] 4780 nM

[in] Query the reported AC26 for D54 ERlucT glycosylation luciferase reporter, luminescence, 24 h; item: Cc1ccc(COc2ccccc2-c2cc(C(=O)N/N=C/c3cccnc3)[nH]n2)cc1
[out] 5260 nM

[in] I'm curious: which AC26 was measured for COc1cc(C(=O)OCC(C)=O)ccc1OCc1c(C)noc1C tested on D54 ERlucT glycosylation luciferase reporter, luminescence, 24 h?
[out] 3270 nM

[in] Give D54 ERlucT glycosylation luciferase reporter, luminescence, 24 h AC26 for COc1ccc(S(=O)(=O)NCc2ccccn2)cc1NC(=O)c1ccccc1F
[out] 1200 nM

[in] Give the reported AC26 for COc1cc(COCC(O)CN2CCN(CCN3C(=O)c4cccc5cccc(c45)C3=O)CC2)cc(OC)c1OC (stereo not given) (system: D54 ERlucT glycosylation luciferase reporter, luminescence, 24 h).
[out] 1230 nM

[in] Identify the measured AC26 of CCN(CC)CCCNc1nc2ccccc2c2nc(-c3ccncc3)nn12 for D54 ERlucT glycosylation luciferase reporter, luminescence, 24 h.
[out] 2320 nM

----------
test system: D54 ERlucT glycosylation luciferase reporter, luminescence, 24 h; test: N-linked glycosylation inhibitors, luciferase reporter, dose response, D54 ERlucT cells, luminescence, cherry-picks (AID 624491)
Property: AC26

As a guide, the following entries are already answered.
Cn1c(-c2ccccc2)c(/C=N/NC(=O)c2cccnc2)c2ccccc21    0.247 µM
COc1ccc(-n2c(=S)[nH]c3cc(C(=O)Nc4ccc(F)cc4)ccc3c2=O)c(OC)c1    4.55 µM
Nc1nc(-c2ccccc2)cc(-c2ccccc2O)n1    4.98 µM
COc1ccc(C2=NOC(C(=O)NCc3ccc(F)cc3)C2)cc1OC (stereo not given)    4.46 µM

[in] What value of measured AC26 is listed for Nc1ccc(C(=O)N2CCN(S(=O)(=O)c3ccc4c(c3)OCCO4)CC2)cc1[N+](=O)[O-] ?
[out] 3.88 µM

----------
system: D54 ERlucT glycosylation luciferase reporter, luminescence, 24 h; assay: N-linked glycosylation inhibitors, luciferase reporter, dose response, D54 ERlucT cells, luminescence, cherry-picks (AID 624491);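 note: signal gain reflects blocked N-linked glycosylation of a luciferase reporter; actives raise luciferase signal so AC26 marks activators of the reporter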
Active and inactive are the calls of the source.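 How the source made its calls: active means fitted curve crossing a set activation limit at or below the highest valid dose tested; inconclusive means flat fit at 30 to 70% activation, or poor fit; inactive means the rest, including signal decreases.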
Just give me one of these, please: active, inactive

CN1CCN(C(c2ccc(Br)cc2)c2cc(Cl)c3cccnc3c2O)CC1 (stereo unspecified)    active
COc1cc2c(cc1OC)C(=O)N1[C@H]3c4ccccc4OC[C@@H]3[C@H](c3ccccc3)[C@]1(C)C(=O)N2    active
O=C(NCCN1C(=O)S/C(=C\c2ccc(Cl)cc2Cl)C1=O)C1=COCCO1    inactive
Cc1ccc(-c2cc(C(=O)Nc3ccncc3)c3ccccc3n2)cc1    active

[in] Tell me the assay call for Cn1c(=O)n(C)c2cc(NS(=O)(=O)c3ccccc3)ccc21 please.
[out] active

[in] Each compound tested received a call. Report the one for Cc1c(C(=O)OCC(C)C)[nH]c2c1C(=O)CC(c1cccs1)C2 (stereo unspecified) .
[out] active

[in] What did this assay record as the result for O=C(COc1ccc(C(=O)c2ccccc2)cc1)NCc1ccc(F)cc1 ?
[out] active

----------
This listing pairs molecules with measured AC26.
test system: D54 ERlucT glycosylation luciferase reporter, luminescence, 24 h; assay: N-linked glycosylation inhibitors, luciferase reporter, dose response, D54 ERlucT cells, luminescence, cherry-picks (AID 624491);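 note: signal gain reflects blocked N-linked glycosylation of a luciferase reporter; actives raise luciferase signal so AC26 marks activators of the reporter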

Examples with answers:
COc1ccc2c(c1)C(=O)N1[C@H]3c4cc(Cl)ccc4OC[C@@H]3[C@H](c3ccccc3)[C@]1(C)C(=O)N2    1010 nM
CCN(CC(=O)Nc1ccccc1-c1ccccc1)Cc1nc2ccccc2c(=O)[nH]1    1470 nM

[in] Look up AC26 for this molecule: Cn1cccc1/C=C1\C(=O)NC(=O)N(Cc2ccccc2Cl)C1=O
[out] 2490 nM

[in] For CCOc1cc(CNc2ccc3cn[nH]c3c2)ccc1OC , what is its reported AC26?
[out] 1550 nM

[in] What AC26 value was documented for this molecule, CCOc1ccc(Cl)cc1C1=CC(=O)C[C@H](c2ccc(OC)cc2)C1 ?
[out] 472 nM

----------
Reported AC26 is given for each of the following compounds.
system: D54 ERlucT glycosylation luciferase reporter, luminescence, 24 h; test: N-linked glycosylation inhibitors, luciferase reporter, dose response, D54 ERlucT cells, luminescence, cherry-picks (AID 624491);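 note: signal gain reflects blocked N-linked glycosylation of a luciferase reporter; actives raise luciferase signal so AC26 marks activators of the reporter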

Solved entries (count: 5):
Cc1onc(C(=O)Nc2cccc(C(F)(F)F)c2)c1[N+](=O)[O-]    2720 nM
C[C@@]12C(=O)Nc3cc(F)c(F)cc3C(=O)N1[C@H]1c3cc(Cl)ccc3OC[C@@H]1[C@@H]2c1ccccc1    789 nM
Cc1ccc2c(c1)C(=O)N1[C@H]3c4cc(Cl)ccc4OC[C@@H]3[C@H](c3ccccc3)[C@]1(C)C(=O)N2    1260 nM
CN(C)/N=C/c1ccc(Sc2ccc([N+](=O)[O-])cc2[N+](=O)[O-])o1    1880 nM
COc1cccc(C2=NOC(C(=O)NCc3ccccc3)C2)c1 (stereo not given)    73.2 nM

[in] # returns recorded AC26 (system: D54 ERlucT glycosylation luciferase reporter, luminescence, 24 h) for CCn1c2ccccc2c2cc(NC(=O)COC(=O)C3CCC(=O)N3)ccc21 (stereo not given)
[out] 3400 nM
